system: E. coli TESEC Alr+ wild-type control; assay: growth (OD600 after 10 h); higher = more growth (less inhibition); settings: compound 0.1 mM; raw OD600 reference: median of DMSO wells 0.241, cell-free background 0.041
Where a name gives a salt, the structure may show the parent alone.
growth: recorded values
Please reply with the value in numeric form only.

Worked cases, answers included:
Form field growth for item CCCCOC(=O)c1ccc(O)cc1 [Butylparaben] on E. coli TESEC Alr+ wild-type control: 0.137

Form field growth for item CCN(CC)CCc1nc(-c2ccccc2)no1 [Oxalamine citrate salt] on E. coli TESEC Alr+ wild-type control: 0.23

Form field growth for item O=C(O)c1ccccc1OP(=O)(O)O [Fosfosal] on E. coli TESEC Alr+ wild-type control: 0.242

Form field growth for item CC1COc2c(N3CCN(C)CC3)c(F)cc3c(=O)c(C(=O)O)cn1c23 (centres undefined) [Ofloxacin] on E. coli TESEC Alr+ wild-type control: 0.0436

Form field growth for item CNCCCN1c2ccccc2CCc2ccccc21 [Desipramine hydrochloride] on E. coli TESEC Alr+ wild-type control: 0.184

Form field growth for item Nc1nc(/C(=C/CC(=O)O)C(=O)N[C@@H]2C(=O)N3C(C(=O)O)=CCS[C@H]23)cs1 [Ceftibuten] on E. coli TESEC Alr+ wild-type control: 0.146

More entries:
Form field growth for item CN1CCc2cccc3c2[C@H]1Cc1ccc(O)c(O)c1-3 [R(-) Apomorphine hydrochloride hemihydrate] on E. coli TESEC Alr+ wild-type control: 0.0618

Form field growth for item CCn1nc(C(=O)O)c(=O)c2cc3c(cc21)OCO3 [Cinoxacin] on E. coli TESEC Alr+ wild-type control: 0.0813

Form field growth for item CN(C)CCN1C(=O)c2ccccc2N(C)c2ccccc21 [Dibenzepine hydrochloride] on E. coli TESEC Alr+ wild-type control: 0.234

Source listed as the supplement of paper PMC9262897.
